# testedSystem: F protein of RSV strain 18537 B (infectious virus) (human respiratory syncytial virus …, UniProt P13843 26-574)
# Sequence (P13843 26-574): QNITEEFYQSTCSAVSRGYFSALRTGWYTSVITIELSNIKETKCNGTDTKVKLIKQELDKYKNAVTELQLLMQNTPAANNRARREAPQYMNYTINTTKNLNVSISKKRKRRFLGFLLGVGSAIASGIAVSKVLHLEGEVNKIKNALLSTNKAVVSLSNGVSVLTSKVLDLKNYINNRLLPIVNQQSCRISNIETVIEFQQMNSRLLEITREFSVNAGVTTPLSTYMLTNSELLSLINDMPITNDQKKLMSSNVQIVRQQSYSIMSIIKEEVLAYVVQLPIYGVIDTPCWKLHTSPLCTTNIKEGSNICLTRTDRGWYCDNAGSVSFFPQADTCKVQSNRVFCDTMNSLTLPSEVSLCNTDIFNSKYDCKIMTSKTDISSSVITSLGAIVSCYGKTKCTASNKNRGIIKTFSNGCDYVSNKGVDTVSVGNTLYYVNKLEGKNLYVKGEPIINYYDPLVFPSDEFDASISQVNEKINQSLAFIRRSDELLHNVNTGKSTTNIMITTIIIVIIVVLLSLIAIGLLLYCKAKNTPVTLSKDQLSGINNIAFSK
# assayOverview: cell-based or functional assay
Lab note: cut-off is 0.06 µg/mL. Strictly less in Neutralization IC50, plaque-reduction assay is T. Exactly 0.06 µg/mL or more is F.

palivizumab (antibody, V domains shown) VH: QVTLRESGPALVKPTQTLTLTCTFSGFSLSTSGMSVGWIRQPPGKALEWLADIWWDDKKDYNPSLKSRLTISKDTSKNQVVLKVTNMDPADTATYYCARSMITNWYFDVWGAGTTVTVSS VL: DIQMTQSPSTLSASVGDRVTITCKCQLSVGYMHWYQQKPGKAPKLLIYDTSKLASGVPSRFSGSGSGTEFTLTISSLQPDDFATYYCFQGSGYPFTFGGGTKLEIK    F
hRSV97 (antibody, V domains shown) VH: EVQLVESGGTLVQPGRSLRLSCAASGFNFEEYAMHWVRQVPGKGLEWVARINWNGGIIGYADSVKGRFTISRDNAKKSLYLQMNSLRTDDSALYYCGKDVFWAVAGTGGPIDSWGQGTLVTVSS VL: DIVMTQSPSSLSASIGDRVTISCRASRDISNYLAWYQQKSGKVPKLLIYAASTLESGVPSRFSGSGSGTDFTLTISSLQPEDVATYYCQNYNSAQMCSFGQGPSLEIK    F
hRSV75 (antibody, V domains shown) VH: EVQLVESGGGLVKPGGSLRLSCAASGFTFRSYSMNWVRQAPGKGLEWVSSITSSSSYIDYADSVKGRFTISRDNAKNSLYLQMNSLRAEDTAVYYCARAYCGGDCSVDHFQHWGQGTLVTVSS VL: QSVLTQPPSVSGAPGQRVTISCTGSSSNIGAGYDVHWYQHLPGTAPKLLIYVNSNRPSGVPDRFSASKSGTSASLAITGLQAEDEADYYCQSYDKSLSGFYVFGTGTKVTVL    F

Would you kindly verify if Neutralization IC50, plaque-reduction assay of hRSV7 (antibody, V domains shown) VH: EVQLVESGGGLVQPGGSLRLSCAASGFTFRNYAMSWVRQAPGKGLEWVSDISSGGDTTYYAESLKGRITISRDNSKNTLYLQMNSLRAEDAAIYFCAKHLLSPMYVNTDVFPDWYFEIWGRGTLVTVSS VL: SYELTQPPSVSVSPGQTARITCSGDGLPKKYAYWYQQKSGQAPVLVIYDDSKRPSGIPERFSGTSSGTMATLIISGAQVEDEADYYCYSRHNSAYQRVFGAGTQLTVL is strictly less than 0.06 µg/mL?
T

Would you kindly verify if Neutralization IC50, plaque-reduction assay of hRSV141 (antibody, V domains shown) VH: QVQLVQSGAEVKKPGASVKVSCKASGYTFTNYYMHWVRQAPGQGLEWMGWINPNRGGTNYAQKFQGRVTMTLDTSISTAYIELSRLRSDDTAVYYCARDLTLGTDYWGQGTLVTVSS VL: QAVVTQPASVFGFPGQSITISCTGTSSDVGGYNYVSWYQQRPGKAPKLMIYEVSNRPSGVSNRFSGSKSGNTASLTISGLQAEDEADYYCNSYTSSNSYVFGTGTKVTVL is strictly less than 0.06 µg/mL?
T
